Record set of IC50 for target or system PI3K δ (Homo sapiens, UniProt O00329).

Would you please look over these solved cases?
Incoming: Request the reported IC50 associated with O=C(c1cnc2ccc(-c3ccnc4[nH]ncc34)cn12)N1CCOCC1
Outgoing: > 10 µM

Incoming: And then O=C(c1cnc2ccc(-c3cnc4cn[nH]c4c3)cn12)N1CCOCC1 , what is it?
Outgoing: > 10 µM

Okay, next one:
Incoming: Request the reported IC50 associated with CN1CC2CN(C(=O)c3cnc4ccc(-c5ccc6oc(N)nc6c5)cn34)CC2C1 (stereo not drawn)
Outgoing: < 1 µM

====

Record set of pIC50 for target or system PI3K β (Homo sapiens, UniProt P42338).
pIC50: −log10 of the molar value.

Incoming: Lookup: pIC50 / PI3K β (Homo sapiens, UniProt P42338) / O=C(c1cnc2ccc(-c3cncc4c3cnn4CCO)cn12)N1CCOCC1 [Compound 10]
Outgoing: < 5.00

Next:
Incoming: Lookup: pIC50 / PI3K β (Homo sapiens, UniProt P42338) / Cc1cc(-c2ccc3nc(N)oc3c2)cn2c(N3CCN(C)CC3)nnc12 [Compound 17]
Outgoing: < 5.00

Incoming: And then Nc1nc2cc(-c3ccc4ncc(C(=O)NCCOCCO)n4c3)ccc2o1 [Compound 21] , what is it?
Outgoing: > 5.00

Incoming: And then Cc1ncc(-c2ccc3ncc(C(=O)N4C5CCC4COC5)n3c2)c2cn[nH]c12 [Compound 9] , what is it?
Outgoing: < 5.00

Incoming: And then Cc1cc(-c2ccc3nc(N)oc3c2)cn2c(-c3ccncc3)nnc12 [Compound 14] , what is it?
Outgoing: > 5.00

Incoming: And then CN1CCN(c2nnc3ccc(-c4ccc5nc(N)oc5c4)cn23)CC1 [Compound 13] , what is it?
Outgoing: < 5.00

Incoming: And then Nc1nc2cc(-c3cnc4ccc(C(=O)N5C6CCC5COC6)cn34)ccc2o1 [Compound 11] , what is it?
Outgoing: < 5.00

Incoming: And then O=C(c1cnc2ccc(-c3cnc4cn[nH]c4c3)cn12)N1CCOCC1 [Compound 6] , what is it?
Outgoing: < 5.00

Incoming: And then Cc1ncc(-c2ccc3ncc(C(=O)N4CCOCC4)n3c2)c2cc[nH]c12 [Compound 7] , what is it?
Outgoing: < 5.00

====

Record set of IC50 for target or system UniProt:P48736.
Sequence (P48736 whole entry): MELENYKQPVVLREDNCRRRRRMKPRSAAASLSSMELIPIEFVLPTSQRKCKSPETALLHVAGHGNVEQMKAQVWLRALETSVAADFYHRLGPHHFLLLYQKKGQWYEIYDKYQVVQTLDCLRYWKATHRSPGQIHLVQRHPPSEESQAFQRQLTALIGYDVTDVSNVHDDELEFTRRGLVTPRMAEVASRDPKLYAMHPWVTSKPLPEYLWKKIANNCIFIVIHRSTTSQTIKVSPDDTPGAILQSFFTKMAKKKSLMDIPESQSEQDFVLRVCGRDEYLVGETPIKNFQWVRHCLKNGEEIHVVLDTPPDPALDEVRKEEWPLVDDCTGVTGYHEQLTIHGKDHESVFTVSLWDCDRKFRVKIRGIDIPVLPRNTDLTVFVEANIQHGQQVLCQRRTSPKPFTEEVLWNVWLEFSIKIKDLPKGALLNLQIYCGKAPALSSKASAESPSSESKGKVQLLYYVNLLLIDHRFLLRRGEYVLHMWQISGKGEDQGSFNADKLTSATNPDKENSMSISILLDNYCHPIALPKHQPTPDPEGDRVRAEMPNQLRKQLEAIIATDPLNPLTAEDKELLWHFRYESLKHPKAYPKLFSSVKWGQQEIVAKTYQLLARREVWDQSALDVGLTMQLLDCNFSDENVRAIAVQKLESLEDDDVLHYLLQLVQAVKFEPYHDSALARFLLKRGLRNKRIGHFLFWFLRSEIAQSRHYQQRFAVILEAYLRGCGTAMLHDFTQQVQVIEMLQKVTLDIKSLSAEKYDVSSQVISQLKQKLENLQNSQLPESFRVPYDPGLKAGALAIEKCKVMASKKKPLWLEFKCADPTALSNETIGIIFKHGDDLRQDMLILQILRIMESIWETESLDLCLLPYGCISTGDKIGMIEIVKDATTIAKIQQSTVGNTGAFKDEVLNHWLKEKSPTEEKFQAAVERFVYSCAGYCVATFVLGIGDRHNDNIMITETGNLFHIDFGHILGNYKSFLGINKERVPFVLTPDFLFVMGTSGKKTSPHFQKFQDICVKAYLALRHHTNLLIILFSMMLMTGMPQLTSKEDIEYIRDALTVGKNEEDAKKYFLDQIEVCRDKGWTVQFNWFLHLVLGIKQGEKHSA

Would you please look over these solved cases?
Incoming: Request the reported IC50 associated with CN1CC2CN(C(=O)c3cnc4ccc(-c5ccc6oc(N)nc6c5)cn34)CC2C1 (centres unmarked)
Outgoing: < 1 µM

Incoming: And then Cn1ncc2c(-c3ccc4ncc(C(=O)N5CCOCC5)n4c3)cncc21 , what is it?
Outgoing: < 10 µM

Incoming: And then [2H]c1c(-c2ccc3ncc(C(=O)N4CCOCC4)n3c2)c([2H])c2nc(N)oc2c1[2H] , what is it?
Outgoing: < 0.1 µM

Incoming: And then Cc1ncc(-c2ccc3ncc(C(=O)N4C5CCC4COC5)n3c2)c2cn[nH]c12 , what is it?
Outgoing: > 10 µM

Next:
Incoming: Request the reported IC50 associated with Cc1ncc(-c2ccc3ncc(C(=O)N4CCOCC4)n3c2)c2cn[nH]c12
Outgoing: > 10 µM

====

Record set of IC50 for target or system mTORC (Homo sapiens, UniProt P42345).

Incoming: Request the reported IC50 associated with Cc1ncc(-c2ccc3ncc(C(=O)N4C5CCC4COC5)n3c2)c2cn[nH]c12
Outgoing: > 10 µM

Incoming: And then O=C(c1cnc2ccc(-c3ccnc4[nH]ncc34)cn12)N1CCOCC1 , what is it?
Outgoing: > 10 µM

Next:
Incoming: Request the reported IC50 associated with CN1CC2CN(C(=O)c3cnc4ccc(-c5ccc6oc(N)nc6c5)cn34)CC2C1 (stereo not drawn)
Outgoing: > 10 µM
